// reported growth for each item listed
system: E. coli TESEC Mtb Alr; assay: growth (OD600 after 10 h); higher = more growth (less inhibition); conditions: arabinose 10000000 nM; compound 0.1 mM; raw OD600 reference: median of DMSO wells […], cell-free background 0.052
Counter-ions that a name gives are not always drawn.
Result Type: growth

>>> print(df.to_string())
                                   compound  measured
0  CCCCCNC(=N)N/N=C/c1c[nH]c2ccc(OC)cc12 [Tegaserod maleate]    0.0554
1  CCN(CC)CCNC(=O)c1cc(S(C)(=O)=O)ccc1OC [Tiapride hydrochloride]     0.361
2  CC(=O)N[C@@H](CS)C(=O)O [Acetylcysteine]     0.344
3  CC(=O)CC(c1ccc([N+](=O)[O-])cc1)c1c(O)c2ccccc2oc1=O (centres undefined) [Acenocoumarol]     0.323
4  CCOC(=O)C(C)(C)Oc1ccc(Cl)cc1 [Clofibrate]     0.325
5  CC(C)COCC(CN(Cc1ccccc1)c1ccccc1)N1CCCC1 (centres undefined) [Bepridil hydrochloride]    0.0512
6  CCS(=O)(=O)CCn1c([N+](=O)[O-])cnc1C [Tinidazole]     0.315
7  Clc1ccc(CO/N=C(\Cn2ccnc2)c2ccc(Cl)cc2Cl)c(Cl)c1 [Oxiconazole Nitrate]    0.0891
8  CCn1cc(C(=O)O)c(=O)c2cc(F)c(N3CCNC(C)C3)c(F)c21 (centres undefined) [Lomefloxacin hydrochloride]    0.0512

* * *

// reported growth for each item listed
system: E. coli TESEC Mtb Alr; experiment: growth (OD600 after 10 h); higher = more growth (less inhibition); conditions: arabinose 10000000 nM; compound 0.1 mM; raw OD600 reference: median of DMSO wells […], cell-free background 0.052
Structures can show the parent of a compound that is named as a salt.
Result Type: growth

>>> df
                                   molecule    experimental_system  measured
0  CCc1cc(Cl)c(OC)c(C(=O)NC[C@@H]2CCCN2CC)c1O [S(-)Eticlopride hydrochloride]  E. coli TESEC Mtb Alr     0.272
1  CC(=O)O[C@]1(C(C)=O)CC[C@H]2[C@@H]3C=C(C)C4=CC(=O)CC[C@@H]4[C@H]3CC[C@@]21C [Nomegestrol acetate]  E. coli TESEC Mtb Alr    0.0935
2  COc1ccc([C@@H]2Sc3ccccc3N(CCN(C)C)C(=O)[C@@H]2OC(C)=O)cc1 [Diltiazem hydrochloride]  E. coli TESEC Mtb Alr       0.3
3  N=C(N)NC(=O)c1nc(Cl)c(N)nc1N [Amiloride hydrochloride dihydrate]  E. coli TESEC Mtb Alr     0.392

* * *

// reported growth for each item listed
tested on: E. coli TESEC Alr+ wild-type control; test: growth (OD600 after 10 h); higher = more growth (less inhibition); details: compound 0.1 mM; raw OD600 reference: median of DMSO wells 0.241, cell-free background 0.041
Counter-ions that a name gives are not always drawn.

Molecule	growth
CC(=O)OCC(=O)[C@@]1(OC(C)=O)[C@@H](C)C[C@H]2[C@@H]3C[C@H](F)C4=CC(=O)C=C[C@]4(C)[C@@]3(F)[C@@H](O)C[C@@]21C [Diflorasone Diacetate]	0.159
CC(=O)Nc1c(I)c(NC(C)=O)c(I)c(C(=O)O)c1I [Diatrizoic acid dihydrate]	0.234
Nc1ccc(S(=O)(=O)Nc2ccccn2)cc1	0.239
CC(=O)OCC(=O)[C@@]12OC3(CCCC3)O[C@@H]1C[C@H]1[C@@H]3CCC4=CC(=O)C=C[C@]4(C)[C@@]3(F)[C@@H](O)C[C@@]12C [Amcinonide]	0.185
CN1Cc2c(N)cccc2C(c2ccccc2)C1 (centres undefined) [Nomifensine maleate]	0.225
C[N+](C)(CCOc1ccccc1)Cc1ccccc1.O=C([O-])c1cc2ccccc2cc1O [Bephenium hydroxynaphthoate]	0.175
CC(=O)OCC(=O)[C@@]12OC(C)(C)O[C@@H]1C[C@H]1[C@@H]3C[C@H](F)C4=CC(=O)C=C[C@]4(C)[C@@]3(F)[C@@H](O)C[C@@]12C [Fluocinonide]	0.229
O=C1NCCN1CCN1CCC(c2cn(-c3ccc(F)cc3)c3ccc(Cl)cc23)CC1	0.0429
O=C(CCCN1CCC(O)(c2ccc(Br)cc2)CC1)c1ccc(F)cc1	0.215
COc1ccccc1Oc1c(NS(=O)(=O)c2ccc(C(C)(C)C)cc2)nc(-c2ncccn2)nc1OCCO	0.227
CCCCCCCCNC(C)C(O)c1ccc(SC(C)C)cc1 (centres undefined)	0.0763
NS(=O)(=O)c1cc2c(cc1C(F)(F)F)NC(Cc1ccccc1)NS2(=O)=O (centres undefined) [Bendroflumethiazide]	0.233
Clc1cnccn1	0.241
CN(C)CCOC(=O)COc1ccc(Cl)cc1 [Meclofenoxate hydrochloride]	0.235
CC(=O)OCC1=C(C(=O)O)N2C(=O)[C@@H](NC(=O)Cc3cccs3)[C@H]2SC1 [Cephalothin sodium salt]	0.305
Cc1ccc2c(c1)c1c3n2CCNC3CCC1 (centres undefined) [Pirlindole mesylate]	0.215
Nc1ncnc2c1ncn2[C@@H]1O[C@H](CO)[C@@H](O)[C@@H]1O	0.206
Cc1[nH]c(=O)c(C#N)cc1-c1ccncc1	0.199
NCCc1cc[nH]n1 [Betazole hydrochloride]	0.25
COC(=O)Nc1nc2cc(Sc3ccccc3)ccc2[nH]1	0.233
C[C@]12CCC(=O)C=C1C=C[C@@H]1[C@@H]2CC[C@@]2(C)[C@H]1CC[C@@]21CCC(=O)O1	0.129
CC1(O)CCOC(=O)C1 (centres undefined)	0.244
O=C(O)c1cn(C2CC2)c2cc(N3CCNCC3)c(F)cc2c1=O [Ciprofloxacin hydrochloride monohydrate]	0.0408
COC1=C(OC)C(=O)C(CCCCCCCCCCO)=C(C)C1=O	0.0426
COc1cc(OC)c(C(=O)CCCN2CCCC2)c(OC)c1 [Buflomedil hydrochloride]	0.238
NCCCCCC(=O)O	0.249
COC(=O)N/N=C/c1c[n+]([O-])c2ccccc2[n+]1[O-]	0.197
CC(=O)c1ccc2c(c1)N(CCCN1CCC(CCO)CC1)c1ccccc1S2	0.161
Cn1nnc2c(C(N)=O)ncn2c1=O [Temozolomide]	0.241
C[C@H](CCC(=O)O)[C@H]1CC[C@H]2[C@@H]3C(=O)C[C@@H]4CC(=O)CC[C@]4(C)[C@H]3CC(=O)[C@]12C [Dehydrocholic acid]	0.252
NC(=O)C(c1ccccc1)(c1ccccc1)[C@@H]1CCN(CCc2ccc3c(c2)CCO3)C1 [Darifenacin hydrobromide]	0.163
Nc1ccc(S(=O)(=O)Nc2ncccn2)cc1	0.257
N#CC(c1ccc(Cl)cc1)c1c(Cl)cc(-n2ncc(=O)[nH]c2=O)cc1Cl (centres undefined)	0.0414
CC(C(=O)O)c1ccc2c(c1)[nH]c1ccc(Cl)cc12 (centres undefined)	0.0924

* * *

tested on: E. coli TESEC Mtb Alr; assay: growth (OD600 after 10 h); higher = more growth (less inhibition); settings: arabinose 1000000 nM; compound 0.1 mM; raw OD600 reference: median of DMSO wells 0.193, cell-free background 0.041

Compound	growth
CCOC(=O)c1ccc(OC(=O)CCCCCNC(=N)N)cc1 [Gabexate mesilate]	0.0891
C=Cc1c(C)c2cc3nc(cc4[nH]c(cc5nc(cc1[nH]2)C(C)=C5CCC(=O)O)c(CCC(=O)OC)c4C)[C@@]1(C)C3=CC=C(C(=O)OC)C1C(=O)OC.C=Cc1c(C)c2cc3nc(cc4[nH]c(cc5nc(cc1[nH]2)C(C)=C5CCC(=O)OC)c(CCC(=O)O)c4C)[C@@]1(C)C3=CC=C(C(=O)OC)C1C(=O)OC (stereo partly drawn)	0.179
O=C(NC(Cc1cc(=O)[nH]c2ccccc12)C(=O)O)c1ccc(Cl)cc1 (stereo not drawn) [Rebamipide]	0.196

* * *

tested on: E. coli TESEC Mtb Alr; test: growth (OD600 after 10 h); higher = more growth (less inhibition); details: arabinose 100000 nM; compound 0.1 mM; raw OD600 reference: median of DMSO wells 0.201, cell-free background 0.041
Where a name gives a salt, the structure may show the parent alone.
Result Type: growth

>>> print(df.to_string())
                                    compound  result_type  measured
 0  Clc1ccc(COC(Cn2ccnc2)c2ccc(Cl)cc2Cl)c(Cl)c1 (stereo not drawn)       growth    0.0741
 1     O=C(O)COC(=O)Cc1ccccc1Nc1c(Cl)cccc1Cl       growth      0.12
 2  CC[N+](CC)(CC(=O)Nc1c(C)cccc1C)Cc1ccccc1 [Denatonium benzoate]       growth     0.182
 3  COCCCOc1ccnc(C[S+]([O-])c2nc3ccccc3[nH]2)c1C (stereo not drawn) [Rabeprazole Sodium salt]       growth     0.135
 4  COc1ccc2c(c1)c(CC(=O)OCC(=O)O)c(C)n2C(=O)c1ccc(Cl)cc1       growth     0.139
 5  CC(C)(C)NC[C@@H](O)COc1cccc2c1CCCC2=O [(+) -Levobunolol hydrochloride]       growth      0.18
 6                     CC(=O)Oc1ccccc1C(=O)O       growth     0.202
 7  Cc1ccc(S(=O)(=O)NC(=O)NN2CCCCCC2)cc1 [Tolazamide]       growth     0.249
 8       COC(=O)Nc1nc2cc(Sc3ccccc3)ccc2[nH]1       growth     0.189
 9  CCCc1ncc(C[n+]2ccccc2C)c(N)n1 [Amprolium hydrochloride]       growth     0.207
10                      Nc1ccc(O)c(C(=O)O)c1       growth       0.2
11  Clc1cccc(Cl)c1NC1=NCCN1 [Clonidine hydrochloride]       growth     0.201
12  OC(CCN1CCCCC1)(c1ccccc1)C1CC2C=CC1C2 (stereo not drawn) [Biperiden hydrochloride]       growth     0.226
13  OCCOCCN1CCN(C2=Nc3ccccc3Sc3ccccc32)CC1 [Quetiapine hemifumarate]       growth     0.203
14  CNCCC(Oc1ccccc1OC)c1ccccc1 (stereo not drawn) [Nisoxetine hydrochloride]       growth     0.173
15  CCc1c(C)[nH]c2c1C(=O)C(CN1CCOCC1)CC2 (stereo not drawn) [Molindone hydrochloride]       growth     0.202
16  COc1ccc(Cl)cc1C(=O)NCCc1ccc(S(=O)(=O)NC(=O)NC2CCCCC2)cc1 [Glibenclamide]       growth     0.144
17  CC(C)(O)c1ccccc1CC[C@@H](SCC1(CC(=O)O)CC1)c1cccc(/C=C/c2ccc3ccc(Cl)cc3n2)c1       growth      0.31
